assay_text: NCI Yeast Anticancer Drug Screen. Data for the bub3 strain (AID 167)
assay_context: S. cerevisiae bub3 mutant strain, at 50.0 µM, active compounds read high
Compounds without any hit were thinned out: in the full panel of roughly 79,000, 15% have a hit. Where a SMILES comes first, the peptide text is derived from it. The star is where a group is joined. Boc = CC(C)(C)OC(=O)*
outcome_measure: growth inhibition (%)
One number for each entry, in %.

Determine its reported growth inhibition: CCOC(=O)c1ccc(NC(=S)NCc2cccnc2)cc1
22.2

Determine its reported growth inhibition: COC(=O)c1ccc(C=O)[nH]1
4.7

Determine its reported growth inhibition: CCOc1ccccc1NC(=O)Nc1cccc2ccccc12
-6.8

Determine its reported growth inhibition: CC(=O)c1ccc2c(c1)-c1ccc(C(C)=O)cc1-2
-10.8

Determine its reported growth inhibition: O=C(Cl)c1cc(C(=O)Cl)cc(C(=O)Cl)c1
-28.4

Please state, for each entry, its recorded growth inhibition.
1. COC(=O)CNC(=O)C(CC(C)C)NC(=O)C(CC(C)C)NC(=O)OC(C)(C)C (stereo not drawn) (Boc-Leu-Leu-Gly-OMe; configuration not given here)
2. COc1cccc(CC(=O)O)c1OC
3. COc1cc(Cl)ccc1NC(=O)COc1ccc(Cl)cc1

1. -0.6
2. -3.5
3. 20

* * *

assay_text: NCI Yeast Anticancer Drug Screen. Data for the cln2 rad14 strain (AID 165);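 also: 0% = growth equal to vehicle treated cultures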
assay_context: S. cerevisiae cln2 rad14 strain, at 50.0 µM, active compounds read high
The panel holds about 79,000 compounds, 15% with a hit somewhere; the sample as a whole holds those more often.
outcome_measure: growth inhibition (%)
One number for each entry, in %.

Solved cases (5 shown):
Determine its reported growth inhibition: [Cl][Pt+2][Cl].[NH-]C1CCCCC1C1CCCCC1[NH-] (stereo not given)
-41.2

Determine its reported growth inhibition: COc1cc(C)ccc1C(=O)C[n+]1ccc2ccccc2c1
-56.1

Determine its reported growth inhibition: CC1CCN(C(c2ccccc2)c2ccc3ccccc3c2O)CC1 (stereo not given)
-6.8

Determine its reported growth inhibition: CC1=C(/C=C/C(C)=C/C=C/C(C)=C/C=C/C=C(C)/C=C/C=C(C)/C=C/C=C(C)/C=C/C=C(\C)C(=O)O)C(C)(C)CCC1
18.6

Determine its reported growth inhibition: CCO[C@H]1OC(=O)[C@@H]2C(c3ccc([N+](=O)[O-])cc3)=NO[C@H]12
2.7

Please state, for each entry, its recorded growth inhibition.
1. Oc1c(CN2CCN(c3ccccc3)CC2)cc(Br)c2cccnc12
2. CCC/C=N\NS(=O)(=O)c1ccc(NC(C)=O)cc1
3. CCCN(N)CCC
4. O=[N+]([O-])c1ccc2c(Cl)[nH]nc2c1
5. O=C(CCCCCCC(=O)ON1C(=O)CCC1=O)ON1C(=O)CCC1=O
6. Nc1c(Cl)ncnc1Nc1cccc(C(F)(F)F)c1
7. CNC(=O)Nc1cc(C)ccc1Cl
8. CCOc1ccccc1NC(=O)CC(=O)N1N=C(C)C(N=Nc2ccccc2C(=O)O)C1=O (stereo not given)

1: -0.3; 2: 12.6; 3: -45.2; 4: 30.8; 5: 13.8; 6: 10.1; 7: -70; 8: -2.3

Please state, for each entry, its recorded growth inhibition.
1. Nc1ncnc2c1c1cncnc1n2C1OC(CO)C(O)C1O (stereo not given)
2. COc1ccc(/C=N/NC(=O)NCCNCCO)cc1

16.1
-13.7

Please state, for each entry, its recorded growth inhibition.
1. CCC(=O)C(=O)C1CCCCC1=O (stereo not given)
2. C/C(=N\N=C(N)N)C(CN(CC(C)C)CC(C)C)C(=O)Nc1ccc(C)cc1C (stereo not given)
3. CC(C)(C)[Si](C)(C)OCC1CCC(n2cnc3c(=O)[nH]cnc32)O1 (stereo not given)
4. CCOC(=O)C(CN1CCN(CC(NC=O)(C(=O)OCC)C(=O)OCC)CC1)(NC=O)C(=O)OCC

1: -9.05; 2: 38.3; 3: -4.1; 4: -0.5

Please state, for each entry, its recorded growth inhibition.
1. O=C1OCC/C1=C\c1ccc(Br)cc1
2. CCN(CC)CC1(CC)COC(c2ccccc2)(c2ccccc2)OC1
3. CC(C)C(N=Cc1ccccc1O)C(=O)O (stereo not given)
4. CCOC(=O)CCC(=O)c1ccc2cc(OC)ccc2c1
5. CCCCC(NC(=O)c1cnc2ccccc2n1)C(=O)O (stereo not given)
6. CC(C)CC(N)C(=O)OCN1C(=O)C2C3C=CC(C2C1=O)C1C2C(=O)N(COC(=O)C(N)CC(C)C)C(=O)C2C31 (stereo not given)

[-29.6, -26.3, -5.75, -36, 4.6, 36.5]
